src = patent US9023821B2

# Tested on: human airway epithelial cells (HAECs)
# assayExplanation: Agilent miRNA chips, miRNA expression at four stages of differentiation of HAECs
# measurementContext: stage FC; Table VI
metric: Level of intensity of expression in log2 measured with the Agilent chips, FC (log2)

hsa-miR-17: human miRNA, SEQ ID No. 11 (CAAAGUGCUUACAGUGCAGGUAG; expressed or natural sequence; listed as Homo sapiens) ... 8.19
hsa-miR-22: human miRNA, SEQ ID No. 23 (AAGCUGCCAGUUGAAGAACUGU; expressed or natural sequence; listed as Homo sapiens) ... 11.10
hsa-miR-140-3p: human miRNA, SEQ ID No. 5 (UACCACAGGGUAGAACCACGG; expressed or natural sequence; listed as Homo sapiens) ... 5.01
hsa-miR-106b: human miRNA, SEQ ID No. 2 (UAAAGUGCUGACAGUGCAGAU; expressed or natural sequence; listed as Homo sapiens) ... 8.94
hsa-miR-99a: human miRNA, SEQ ID No. 52 (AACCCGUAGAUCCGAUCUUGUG; expressed or natural sequence; listed as Homo sapiens) ... 8.12
hsa-miR-100: human miRNA, SEQ ID No. 1 (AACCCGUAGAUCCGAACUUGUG; expressed or natural sequence; listed as Homo sapiens) ... 6.29
hsa-miR-25: human miRNA, SEQ ID No. 27 (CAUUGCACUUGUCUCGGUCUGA; expressed or natural sequence; listed as Homo sapiens) ... 7.85
hsa-miR-425: human miRNA, SEQ ID No. 44 (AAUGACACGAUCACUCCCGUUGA; expressed or natural sequence; listed as Homo sapiens) ... 8.39
hsa-miR-148a: human miRNA, SEQ ID No. 7 (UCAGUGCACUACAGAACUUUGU; expressed or natural sequence; listed as Homo sapiens) ... 8.91
